# measured target: T1, CD3ε homodimer protein (human, UniProt P07766 23-126, limits assumed, sulfo-tag or biotin label in some ECL assays)
# T1 construct: also called human CD3ε homodimer protein; CD3 (CD3ε)
# T1 sequence (P07766 23-126 limits assumed): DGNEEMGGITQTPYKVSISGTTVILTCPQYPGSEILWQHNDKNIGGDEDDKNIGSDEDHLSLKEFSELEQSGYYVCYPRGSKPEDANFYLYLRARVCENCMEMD
# protocol notes: SPR, CD3ε homodimer on chip;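 note: biacore SPR with antibody variants flowed as analyte over amine-coupled CD3ε homodimer on a CM chip, bound amount of each single-residue H chain variant over that of parent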
Each record is given met if its reported ratio of amounts bound vs CE115HA000 is strictly below 0.7. Records at or above 0.7 are given not met.

Inquiry: Is ratio of amounts bound vs CE115HA000 of CE115HA000 D73T (antibody, name in Kabat numbering, V domains shown) VH: QVQLVESGGGVVQPGRSLRLSCAASGFTFSNAWMHWVRQAPGKGLEWVAQIKAKSNNYATYYAESVKGRFTISRDTSKNSLYLQMNSLKTEDTAVYYCRYVHYGAYYGVDAWGQGTTVTVSS VL: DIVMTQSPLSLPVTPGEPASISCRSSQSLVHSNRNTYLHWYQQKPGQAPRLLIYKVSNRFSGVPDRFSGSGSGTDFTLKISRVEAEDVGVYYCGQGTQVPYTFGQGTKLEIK strictly below 0.7?
Reply text: met

Inquiry: Is ratio of amounts bound vs CE115HA000 of CE115HA000 H35T (antibody, name in Kabat numbering, V domains shown) VH: QVQLVESGGGVVQPGRSLRLSCAASGFTFSNAWMTWVRQAPGKGLEWVAQIKAKSNNYATYYAESVKGRFTISRDDSKNSLYLQMNSLKTEDTAVYYCRYVHYGAYYGVDAWGQGTTVTVSS VL: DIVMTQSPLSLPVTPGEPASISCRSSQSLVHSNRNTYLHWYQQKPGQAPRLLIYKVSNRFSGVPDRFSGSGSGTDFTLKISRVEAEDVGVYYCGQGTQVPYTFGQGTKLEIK strictly below 0.7?
Reply text: met

Inquiry: Is ratio of amounts bound vs CE115HA000 of CE115HA000 N54L (antibody, name in Kabat numbering, V domains shown) VH: QVQLVESGGGVVQPGRSLRLSCAASGFTFSNAWMHWVRQAPGKGLEWVAQIKAKSNLYATYYAESVKGRFTISRDDSKNSLYLQMNSLKTEDTAVYYCRYVHYGAYYGVDAWGQGTTVTVSS VL: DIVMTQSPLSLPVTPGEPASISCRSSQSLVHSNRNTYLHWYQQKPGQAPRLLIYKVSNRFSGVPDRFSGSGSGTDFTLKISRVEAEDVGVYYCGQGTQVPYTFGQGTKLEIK strictly below 0.7?
Reply text: not met

Inquiry: Is ratio of amounts bound vs CE115HA000 of CE115HA000 S52cV (antibody, name in Kabat numbering, V domains shown) VH: QVQLVESGGGVVQPGRSLRLSCAASGFTFSNAWMHWVRQAPGKGLEWVAQIKAKVNNYATYYAESVKGRFTISRDDSKNSLYLQMNSLKTEDTAVYYCRYVHYGAYYGVDAWGQGTTVTVSS VL: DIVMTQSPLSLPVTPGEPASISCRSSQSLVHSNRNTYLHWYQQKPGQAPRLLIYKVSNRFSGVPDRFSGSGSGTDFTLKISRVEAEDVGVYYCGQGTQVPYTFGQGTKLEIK strictly below 0.7?
Reply text: not met

Inquiry: Is ratio of amounts bound vs CE115HA000 of CE115HA000 A56Y (antibody, name in Kabat numbering, V domains shown) VH: QVQLVESGGGVVQPGRSLRLSCAASGFTFSNAWMHWVRQAPGKGLEWVAQIKAKSNNYYTYYAESVKGRFTISRDDSKNSLYLQMNSLKTEDTAVYYCRYVHYGAYYGVDAWGQGTTVTVSS VL: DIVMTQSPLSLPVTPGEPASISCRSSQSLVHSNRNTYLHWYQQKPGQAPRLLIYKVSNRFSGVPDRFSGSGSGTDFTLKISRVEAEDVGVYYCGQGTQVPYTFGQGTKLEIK strictly below 0.7?
Reply text: met
